Target: native, highly purified SAP2 preparation (Candida albicans, UniProt P0CS83 57-398)
Sequence (P0CS83 57-398 limits assumed): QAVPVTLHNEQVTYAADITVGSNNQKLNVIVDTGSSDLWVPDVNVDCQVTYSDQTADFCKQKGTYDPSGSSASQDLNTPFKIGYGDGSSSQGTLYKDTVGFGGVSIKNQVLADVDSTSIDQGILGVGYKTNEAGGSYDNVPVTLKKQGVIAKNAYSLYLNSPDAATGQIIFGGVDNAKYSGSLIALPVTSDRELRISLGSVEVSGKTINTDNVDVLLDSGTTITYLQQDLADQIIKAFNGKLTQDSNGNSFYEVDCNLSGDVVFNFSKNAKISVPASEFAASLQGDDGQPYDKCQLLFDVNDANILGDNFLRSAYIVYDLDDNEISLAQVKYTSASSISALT
Test: cell-based or functional assay
endpoint.name: % Inhibition (BSA degradation, proteinase enzyme assay) (%)
Give bare numbers, in %.

ADR4-5 (other) EVQLLESGGGLVQPGGSLRLSCAASGDRISSEFMGWVRQAPGKGLEWVSAIYKPNGSTYYADSVKGRFTISRDNSKNTLYLQMNSLRAEDTAVYYCARGRARRTESTYQLRYWGQGTLVTVSS: 0
ADR4-10 (other) EVQLLESGGGLVQPGGSLRLSCAASGVSVSAYTMSWVRQAPGKGLEWVSAILKKNGSTYYADSVKGRFTISRDNSKNTLYLQMNSLRAEDTAVYYCAGRPSVTFGGPGKRYDYHFQYWGQGTLVTVSS: 13
ADR4-7 (other) EVQLLESGGGLVQPGGSLRLSCAASGYSVTYQNMAWVRQAPGKGLEWVSTITVPNGSTYYADSVKGRFTISRDNSKNTLYLQMNSLRAEDTAVYYCAGLGEVLRDGNANVQFWGQGTLVTVSS: 61
ADR4-4 (other) EVQLLESGGGLVQPGGSLRLSCAASGFTFLDYQMSWVRQAPGKGLEWVSGISRSGNKTKYADSVKGRFTISRDNSKNTLYLQMNSLRAEDTAVYYCAKWAGLNRHDFDYWGQGTLVTVSS: 32

List the reported % Inhibition (BSA degradation, proteinase enzyme assay) of each binder below.
1. ADR4-6 (other) EVQLLESGGGLVQPGGSLRLSCAASGFRVSNYDLTWVRQAPGKGLEWVSTISATNGSTYYADSVKGRFTISRDNSKNTLYLQMNSLRAEDTAVYYCAAVTWWLLRHNDNLGFWGQGTLVTVSS
2. ADR4-11 (other) EVQLLESGGGLVQPGGSLRLSCAASGVIFTDQTMGWVRQAPGKGLEWVSAIKTRDGSTYYADSVKGRFTISRDNSKNTLYLQMNSLRAEDTAVYYCARFLRPNASRGSAREAQIHSWGQGTLVTVSS

*A*
1. 78
2. 29
